Test: chemical genetic growth profiling, strain panel (AID 1159580);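 note: tested at 20 µM; growth read once vehicle control cultures reached saturation at 30 °C; 1 = growth at the plate median or of vehicle wells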
Settings: S. cerevisiae deletion strains, growth OD, locus YNL153C, strain GIM3, hits give low values
About 2,000 (36%) of roughly 5,500 compounds were called active. About 18% were inconclusive and are not listed. The list shows a part of the results.
Simple rule here: normalized growth less than 1 is criterion met, otherwise criterion not met.

Record excerpt, results attached:
[[record]]
compound = "CN1CCN(c2nc3cc(C(F)(F)F)ccc3n3cccc23)CC1"
classification = "criterion met"

[[record]]
compound = "CC(CN(C)C)CN1c2ccccc2Sc2ccccc21 (stereo not drawn)"
classification = "criterion met"


For this compound, is normalized growth lower than 1? COc1ccc(-n2c(-c3ccc(C)cc3)csc2=N)cc1
criterion not met

For this compound, is normalized growth lower than 1? COc1ccc(-c2ccc(C=C(C#N)C#N)s2)cc1
criterion met

###

Test: chemical genetic growth profiling, strain panel (AID 1159580);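 note: tested at 20 µM; growth read once vehicle control cultures reached saturation at 30 °C; 1 = growth at the plate median or of vehicle wells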
Conditions: S. cerevisiae deletion strains, growth OD, locus YPR119W, strain clb2
Among all 5,500 compounds or so, about 2,000 (36%) were called active. Inconclusive results (about 18%) are left out. No stated cut-off is given here; in the data, active means normalized growth mostly below about 0.91 (no sharp cut-off); inconclusive means no clear call, values can overlap the other calls; inactive means mostly above about 0.92. This is one part of the list.
Give your call using only these classes: active, inactive

Record excerpt, results attached:
[[record]]
compound = "CC(CCC(=O)O)[C@H]1CCC2C3CC[C@@H]4C[C@H](O)CC[C@]4(C)C3CC[C@@]21C (some centres undefined)"
classification = "active"

[[record]]
compound = "O=C(O)Cc1cc(I)c(Oc2cc(I)c(O)c(I)c2)c(I)c1"
classification = "inactive"

[[record]]
compound = "CC(=O)O[C@H]1C[C@@H](OC(C)=O)C(C)(C)C2CC(=O)[C@]3(C)C(CC[C@@]4(C)[C@H](c5ccoc5)OC(=O)[C@H]5O[C@]543)[C@]21C (some centres undefined)"
classification = "inactive"


Moving on to the next compound.
Answer briefly: the call reported for COc1cc(S(C)=O)ccc1-c1nc2ncccc2[nH]1 (centres undefined) in this assay.
inactive

###

Experiment: chemical genetic growth profiling, strain panel (AID 1159580);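 note: tested at 20 µM; growth read once vehicle control cultures reached saturation at 30 °C; 1 = growth at the plate median or of vehicle wells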
Conditions: S. cerevisiae deletion strains, growth OD, locus YAL040C, strain CLN3, hits give low values
Screen size: about 5,500 compounds; about 2,000 (36%) were called active. Roughly 18% stayed inconclusive and do not appear here. Some of the results follow.
readout_kind: normalized growth
API doc: respond with a numeric literal and nothing else, no unit.

Before answering, review these 4 worked examples.
[[record]]
molecule = "NC(N)=NC(=O)Cc1c(Cl)cccc1Cl"
readout_kind = "normalized growth"
result = 0.979

[[record]]
molecule = "Clc1ccc2c(c1)C(N1CCNCC1)=Nc1ccccc1O2"
readout_kind = "normalized growth"
result = 1.01

[[record]]
molecule = "CC(=O)OCC1=C(C(=O)O)N2C(=O)C(NC(=O)Cc3cccs3)C2SC1 (centres undefined)"
readout_kind = "normalized growth"
result = 0.993

[[record]]
molecule = "c1ccc2nc(N3CCNCC3)ccc2c1"
readout_kind = "normalized growth"
result = 1.02


Hello, please tell me recorded normalized growth for this one: Nc1ccncc1
0.997

Hello, please tell me recorded normalized growth for this one: CN1CCN(C2=Nc3ccccc3Oc3ccc(Cl)cc32)CC1
0.979

Hello, please tell me recorded normalized growth for this one: Cc1[nH]c(=O)c(C#N)cc1-c1ccncc1
1

Hello, please tell me recorded normalized growth for this one: CC1CCN(CC[C@H]2CCCN2S(=O)(=O)c2cccc(O)c2)CC1
0.99

Hello, please tell me recorded normalized growth for this one: C#CC(N)CCC(=O)O (centres undefined)
1.02

Data origin, for the record: PubChem BioAssay AID1159580
